Each recorded value in this set is attributed to PubChem BioAssay (NCI).

# Tested on: MOLT-4 leukemia
# experiment summary: NCI-60 one-dose screen, 48 h (100 = growth as untreated, 0 = no growth, -100 = all killed)
# experimental parameters: 10 µM
This is part of a sample that, as a whole, favours compounds with a hit. Of some 83,000 tested, about 20% had one in any assay.
Binary call on growth: True from 50% upward, False beneath that.

| molecule | qualitative label |
| --- | --- |
| Cc1cc(C)nc(/N=C(\N)Nc2ccc(S(=O)(=O)Nc3nc(C)cc(C)n3)cc2)n1 | True |
| COc1ccc2[nH]c(=O)c(CSc3nccc(-c4ccc(Cl)cc4)n3)cc2c1 | False |
| CC(=O)NNc1ccc2nnc(-c3ccc(Br)cc3)n2n1 | True |
| O=c1[nH]c2ccc(Cl)cc2cc1CSc1ccc(Nc2nccc(-c3ccc(Cl)cc3)n2)cc1 | False |
| CN1CCCN(Cc2ccc(C(=O)Nc3cccc(Nc4ccc5cc(O)ccc5n4)c3)cc2C(F)(F)F)CC1 | False |
| CN(CCO)c1oc(-c2ccccc2)nc1[P+](c1ccccc1)(c1ccccc1)c1ccccc1 | False |
| CCOc1ccc(/C=N/NC(=O)Cn2nc(Cc3ccccc3)c3onc(C)c3c2=O)cc1 | True |
| CN1CCN(Cc2ccc(NC(=O)c3cncc(C#Cc4cnc5ccc(N[C@@H]6CCOC6)nn45)c3)cc2C(F)(F)F)CC1 | False |
| O=C1Nc2ccc(Cl)cc2/C1=C/c1ccc(OCc2ccccn2)cc1 | False |
